biological target: Human recombinant PKCβ1 (Homo sapiens, UniProt P05771); experiment: Protein Kinase Cβ1 assay; conditions: human recombinant PKCβ1; single compounds
Sequence (P05771 whole entry): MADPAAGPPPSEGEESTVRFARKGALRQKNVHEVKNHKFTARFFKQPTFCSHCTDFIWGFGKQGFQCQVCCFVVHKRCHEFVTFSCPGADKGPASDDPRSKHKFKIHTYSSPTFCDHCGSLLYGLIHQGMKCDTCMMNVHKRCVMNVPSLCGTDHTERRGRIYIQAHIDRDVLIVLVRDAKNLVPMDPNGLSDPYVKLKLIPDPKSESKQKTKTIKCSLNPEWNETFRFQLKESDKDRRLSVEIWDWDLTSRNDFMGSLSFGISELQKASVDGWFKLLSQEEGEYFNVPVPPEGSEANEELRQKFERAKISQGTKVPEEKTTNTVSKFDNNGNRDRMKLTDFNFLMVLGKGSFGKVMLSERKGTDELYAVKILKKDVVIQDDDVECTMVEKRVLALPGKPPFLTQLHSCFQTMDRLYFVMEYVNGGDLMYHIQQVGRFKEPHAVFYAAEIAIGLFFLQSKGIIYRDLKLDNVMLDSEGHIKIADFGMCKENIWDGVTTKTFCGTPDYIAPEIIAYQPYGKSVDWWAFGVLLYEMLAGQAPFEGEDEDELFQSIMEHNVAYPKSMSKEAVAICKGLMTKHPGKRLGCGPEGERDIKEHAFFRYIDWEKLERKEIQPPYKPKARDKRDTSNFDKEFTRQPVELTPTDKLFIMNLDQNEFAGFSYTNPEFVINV
Observable: IC50 (nM)

CN(C)Cc1ccc2ccc(Cl)c(C3=C(c4cn(C)c5ccccc45)C(=O)NC3=O)c2n1 ... 41

a = Cc1cccc2c(C3=C(c4c(Cl)ccc5ncc(CN(C)C)cc45)C(=O)NC3=O)c[nH]c12
b = CN(C)Cc1ccc2ccc(Cl)c(C3=C(c4cn5c6c(cccc46)OCCC5)C(=O)NC3=O)c2c1
c = CN(C)Cc1cc2c(C3=C(c4c[nH]c5ccccc45)C(=O)NC3=O)c(Cl)ccc2cn1
// ascending sort on recorded IC50 Labels, requested order.
b, c, a
(b: 12.4 nM, c: 25 nM, a: 51 nM)
